All figures here come from ChEMBL document CHEMBL1126089.

# Subject Of Test: Adenosine A2 receptor (Rattus norvegicus, UniProt P29276+P30543)
Measured Metric: Ki (nM)

- Chemical Smiles: "CCCCC#Cc1nc(N)c2ncn([C@@H]3O[C@H](C(=O)NCC)[C@@H](O)[C@H]3O)c2n1"
  Subject Of Test: "Adenosine A2 receptor (Rattus norvegicus, UniProt P29276+P30543)"
  Reported Result: 3.8

P. CCCCCC#Cc1nc(N)c2ncn([C@@H]3O[C@H](CO)[C@@H](O)[C@H]3O)c2n1
Q. CCCCCCC#Cc1nc(N)c2ncn([C@@H]3O[C@H](CO)[C@@H](O)[C@H]3O)c2n1
R. CCCC#Cc1nc(N)c2ncn([C@@H]3O[C@H](CO)[C@@H](O)[C@H]3O)c2n1
Please produce an ascending ranking of these compounds based on Ki. Please list the labels according to the requested order.
P, Q, R
